Test system: ACHN renal
testProtocol: NCI tumour cell line growth inhibition, 48 h; in the data active = GI50 below about 0.43 µM; inactive = the rest
Select the matching outcome among active, inactive

| compound | classification |
| --- | --- |
| COc1cc([C@@H]2c3cc4c(cc3[C@H](OC(C)=O)[C@H]3COC(=O)[C@H]23)OCO4)cc(OC)c1OC | active |

Incoming: Per the assay record, what outcome was assigned to N=C1C(c2nc3ccccc3s2)=C(O)CN1c1ccc(Cl)cc1Cl ?
Outgoing: inactive

Incoming: # lookup: test call for Cc1ccc2c(N/N=C\c3ccco3)cc(C)nc2n1
Outgoing: inactive

Incoming: Outcome? O=C(Nc1ccc(Cl)cc1)c1cc2cc(F)ccc2cc1O
Outgoing: inactive
